// provenance: patent US7223759B2

# Test system: Escherichia coli (ATCC25922) or Staphylococcus aureus (ATCC25923)
# TEST_DETAILS: Antibacterial MIC, microdilution method in Mueller-Hinton medium
# Format: cell-based
# DETAILS: Escherichia coli, 18 h, read-out: Potency (MIC)
For each record, write down the corresponding MIC.

Data request: Reported MIC, molecule N[C@@H]1C[C@H](N)CN(c2nc(Nc3cccc(NC(=O)c4cccc([N+](=O)[O-])c4O)c3)nc(N3C[C@H](N)C[C@H](N)C3)n2)C1 : ____
Data returned: < 16 µg/mL

Data request: Recorded MIC of NCc1ccc(NC(=O)CC(=O)c2ccc(Nc3nc(N4C[C@H](N)C[C@H](N)C4)nc(N4C[C@H](N)C[C@H](N)C4)n3)cc2)cc1 , please.
Data returned: > 64 µg/mL

Data request: Any idea what MIC was measured for N[C@@H]1C[C@H](N)CN(c2nc(Nc3ccc(C(=O)CC(=O)Nc4ccccc4C(F)(F)F)cc3)nc(N3C[C@H](N)C[C@H](N)C3)n2)C1 ?
Data returned: < 64 µg/mL
